- Species: Rattus norvegicus
- TEST DESCRIPTION: Open TG-GATES - Regimen: Daily Repeat
- Format: toxicity, organism-based, Sprague-Dawley
- Design: regimen Daily Repeat, gender Male, age 6 weeks
- SETUP CONDITIONS: in vivo, po, 100 mg/kg, […], tissue Plasma, route gavage, dose level Low, time 14 day
MEASURED QUANTITY: GLC (mg/dL)
Please respond with the number in mg/dL and leave the unit unwritten.

Asked: Can you share its GLC? I mean this compound: COC1=CC(=O)C[C@@H](C)[C@]12Oc1c(Cl)c(OC)cc(OC)c1C2=O [GRISEOFULVIN]
Given back: 215.2

Asked: Can you share its GLC? I mean this compound: CCOc1ccc(NC(=O)CC(C)O)cc1 (stereo not given) [BUCETIN]
Given back: 191

Asked: Can you share its GLC? I mean this compound: COc1ccc2[nH]c([S+]([O-])Cc3ncc(C)c(OC)c3C)nc2c1 (stereo not given) [OMEPRAZOLE]
Given back: 210.8

Asked: Can you share its GLC? I mean this compound: CCOC(=O)CCC(=O)O[C@H]1[C@H](O[C@@H]2[C@@H](C)[C@H](O[C@H]3C[C@@](C)(OC)[C@@H](O)[C@H](C)O3)[C@@H](C)C(=O)O[C@H](CC)[C@@](C)(O)[C@H](O)[C@@H](C)C(=O)[C@H](C)C[C@@]2(C)O)O[C@H](C)C[C@@H]1N(C)C [ERYTHROMYCIN ETHYLSUCCINATE]
Given back: 196.8

Asked: Can you share its GLC? I mean this compound: NC(N)=Nc1nc(CSCCC(N)=NS(N)(=O)=O)cs1 [FAMOTIDINE]
Given back: 196.2

* * *

Parameter Hb: see the listing below.
- Species: Rattus norvegicus
- TEST DESCRIPTION: Open TG-GATES - Regimen: Single
- Format: toxicity, organism-based, Sprague-Dawley
- Design: regimen Single, gender Male, age 6 weeks
- SETUP CONDITIONS: in vivo, po, 100 mg/kg, 6 h, tissue Blood, route gavage, dose level Low
Please respond with the number in g/dL and leave the unit unwritten.

Before answering, review these 3 worked examples.
COc1ccc2[nH]c([S+]([O-])Cc3ncc(C)c(OC)c3C)nc2c1 (centres undefined) | 13.2
NC(N)=Nc1nc(CSCCC(N)=NS(N)(=O)=O)cs1 | 13.4
CCOC(=O)CCC(=O)O[C@H]1[C@H](O[C@@H]2[C@@H](C)[C@H](O[C@H]3C[C@@](C)(OC)[C@@H](O)[C@H](C)O3)[C@@H](C)C(=O)O[C@H](CC)[C@@](C)(O)[C@H](O)[C@@H](C)C(=O)[C@H](C)C[C@@]2(C)O)O[C@H](C)C[C@@H]1N(C)C [ERYTHROMYCIN ETHYLSUCCINATE] | 13.2

Next compound, Hb to be filled in.
Asked: Can you share its Hb? I mean this compound: COC1=CC(=O)C[C@@H](C)[C@]12Oc1c(Cl)c(OC)cc(OC)c1C2=O
Given back: 13.3

* * *

- Species on record: Rattus norvegicus
- TEST DESCRIPTION: Open TG-GATES - Regimen: Daily Repeat
- Assay type: toxicity, organism-based, Sprague-Dawley
- Design: regimen Daily Repeat, gender Male, age 6 weeks
- SETUP CONDITIONS: in vivo, po, 0 mg/kg, […], tissue Plasma, route gavage, dose level Control, time 14 day
Flag rule - ALP less than 1000 IU/L flags 1 (yes); the remaining entries get 0 (no).

Before answering, review these 3 worked examples.
CCCNC(=O)NS(=O)(=O)c1ccc(Cl)cc1 [CHLORPROPAMIDE] | 0 (no)
CCOC(=O)CCC(=O)O[C@H]1[C@H](O[C@@H]2[C@@H](C)[C@H](O[C@H]3C[C@@](C)(OC)[C@@H](O)[C@H](C)O3)[C@@H](C)C(=O)O[C@H](CC)[C@@](C)(O)[C@H](O)[C@@H](C)C(=O)[C@H](C)C[C@@]2(C)O)O[C@H](C)C[C@@H]1N(C)C [ERYTHROMYCIN ETHYLSUCCINATE] | 0 (no)
NC(N)=Nc1nc(CSCCC(N)=NS(N)(=O)=O)cs1 | 1 (yes)

Consider now this further compound.
Asked: Hi there! Is ALP for NNC(=O)c1ccncc1 below 1000 IU/L, do you know?
Given back: 1 (yes)
